Cited source for all entries: patent US20050261264A1

# protocol notes: Miscibility with solvents, visual evaluation at 5 wt %
# Type: physicochemical
# Design: key: ⊚: dissolves at room temperature; ◯: dissolves when heated for 5 minutes at 40° C.; Δ: dissolves under heating, but cooling precipitates crystals; X: does not dissolve
# assay setup: complex added at 5 wt %
quantity name: Miscibility, Toluene

These recorded examples may help you get a feel for the data.
[
  {
    "compound": "O=S(=O)([N-]S(=O)(=O)C(F)(F)F)C(F)(F)F.O=S(=O)([N-]S(=O)(=O)C(F)(F)F)C(F)(F)F.O=S(=O)([N-]S(=O)(=O)C(F)(F)F)C(F)(F)F.O=S(c1ccccc1)c1ccccc1.O=S(c1ccccc1)c1ccccc1.O=S(c1ccccc1)c1ccccc1.O=S(c1ccccc1)c1ccccc1.O=S(c1ccccc1)c1ccccc1.O=S(c1ccccc1)c1ccccc1.O=S(c1ccccc1)c1ccccc1.O=S(c1ccccc1)c1ccccc1.[Nd+3]",
    "quantity name": "Miscibility, Toluene",
    "result": "◯"
  },
  {
    "compound": "O=S(=O)([N-]S(=O)(=O)C(F)(F)F)C(F)(F)F.O=S(=O)([N-]S(=O)(=O)C(F)(F)F)C(F)(F)F.O=S(=O)([N-]S(=O)(=O)C(F)(F)F)C(F)(F)F.[Nd+3].c1cnc2c(c1)ccc1cccnc12.c1cnc2c(c1)ccc1cccnc12.c1cnc2c(c1)ccc1cccnc12.c1cnc2c(c1)ccc1cccnc12",
    "quantity name": "Miscibility, Toluene",
    "result": "Δ"
  },
  {
    "compound": "O=S(=O)([N-]S(=O)(=O)C(F)(F)F)C(F)(F)F.O=S(=O)([N-]S(=O)(=O)C(F)(F)F)C(F)(F)F.O=S(=O)([N-]S(=O)(=O)C(F)(F)F)C(F)(F)F.[Eu+3].c1cnc2c(c1)ccc1cccnc12.c1cnc2c(c1)ccc1cccnc12.c1cnc2c(c1)ccc1cccnc12.c1cnc2c(c1)ccc1cccnc12",
    "quantity name": "Miscibility, Toluene",
    "result": "Δ"
  },
  {
    "compound": "O=C(C=C([O-])C(F)(F)F)C(F)(F)F.O=C(C=C([O-])C(F)(F)F)C(F)(F)F.O=C(C=C([O-])C(F)(F)F)C(F)(F)F.O=P(c1ccccc1)(c1ccccc1)c1ccccc1.O=P(c1ccccc1)(c1ccccc1)c1ccccc1.[Nd+3] [Nd(HFA)3(TPPO)2, reference compound]",
    "quantity name": "Miscibility, Toluene",
    "result": "◯"
  },
  {
    "compound": "O=S(=O)([N-]S(=O)(=O)C(F)(F)F)C(F)(F)F.O=S(=O)([N-]S(=O)(=O)C(F)(F)F)C(F)(F)F.O=S(=O)([N-]S(=O)(=O)C(F)(F)F)C(F)(F)F.[Eu+3] [Eu(PMS)3, reference compound]",
    "quantity name": "Miscibility, Toluene",
    "result": "X"
  }
]

Incoming: Fill in the blank: the reported Miscibility, Toluene of `O=P(c1ccccc1)(c1ccccc1)c1ccccc1.O=P(c1ccccc1)(c1ccccc1)c1ccccc1.O=P(c1ccccc1)(c1ccccc1)c1ccccc1.O=P(c1ccccc1)(c1ccccc1)c1ccccc1.O=P(c1ccccc1)(c1ccccc1)c1ccccc1.O=P(c1ccccc1)(c1ccccc1)c1ccccc1.O=P(c1ccccc1)(c1ccccc1)c1ccccc1.O=P(c1ccccc1)(c1ccccc1)c1ccccc1.O=S(=O)([N-]S(=O)(=O)C(F)(F)F)C(F)(F)F.O=S(=O)([N-]S(=O)(=O)C(F)(F)F)C(F)(F)F.O=S(=O)([N-]S(=O)(=O)C(F)(F)F)C(F)(F)F.[Nd+3]` is ____.
Outgoing: ◯
